Value source: paper PMC10786891

# measured.on: T1, EsCas13d, nuclease-dead (Eubacterium siraeum, UniProt B0MS50, R295A;H300A;R849A;H854A)
# T1 sequence: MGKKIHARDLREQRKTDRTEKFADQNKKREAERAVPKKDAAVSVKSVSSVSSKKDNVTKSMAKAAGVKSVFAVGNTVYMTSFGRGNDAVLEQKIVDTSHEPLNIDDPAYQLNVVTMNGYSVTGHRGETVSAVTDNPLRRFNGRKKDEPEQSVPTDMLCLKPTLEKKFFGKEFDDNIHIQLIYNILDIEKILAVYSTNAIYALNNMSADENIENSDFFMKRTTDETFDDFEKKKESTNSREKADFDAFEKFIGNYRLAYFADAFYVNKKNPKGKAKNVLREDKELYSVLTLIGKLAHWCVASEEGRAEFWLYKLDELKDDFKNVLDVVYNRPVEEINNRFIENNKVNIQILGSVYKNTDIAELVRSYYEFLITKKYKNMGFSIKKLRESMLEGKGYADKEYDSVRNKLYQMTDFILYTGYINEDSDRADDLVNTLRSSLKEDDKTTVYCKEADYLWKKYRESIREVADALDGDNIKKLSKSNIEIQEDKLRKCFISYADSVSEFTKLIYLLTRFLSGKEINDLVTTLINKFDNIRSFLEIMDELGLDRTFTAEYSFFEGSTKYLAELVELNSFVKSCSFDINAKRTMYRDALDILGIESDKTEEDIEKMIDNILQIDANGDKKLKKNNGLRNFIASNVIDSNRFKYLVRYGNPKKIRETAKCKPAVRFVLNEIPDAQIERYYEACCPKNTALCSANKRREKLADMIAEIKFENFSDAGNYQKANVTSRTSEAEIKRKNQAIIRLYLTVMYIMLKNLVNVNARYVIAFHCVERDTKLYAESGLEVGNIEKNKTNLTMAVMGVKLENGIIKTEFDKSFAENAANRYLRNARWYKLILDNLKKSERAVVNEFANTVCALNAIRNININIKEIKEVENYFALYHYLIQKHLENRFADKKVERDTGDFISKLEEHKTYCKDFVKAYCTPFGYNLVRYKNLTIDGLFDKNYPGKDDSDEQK
# test.details: crRNA (strand 1, pre-loaded); Mg2+; 40 mM Tris-HCl pH 7.5, 150 mM NaCl, 6 mM MgCl2, 1 mM DTT, 0.1% Tween-20, 0.2 mg/ml BSA; 25 C; 10 min per concentration, then washed
# experimental.setup: tags: His6-TwinStrep-SUMO cleaved; N-terminal SNAP kept (SNAP-Surface 488); label: 3' end held by stalled T7 RNA polymerase
recorded.metric: pKd
Note: pKd values are expressed as the negative base-10 logarithm of concentration in M.

Use the examples below as a reference point.
binder="target 1 A9U,U19A (mixed) RNA 1: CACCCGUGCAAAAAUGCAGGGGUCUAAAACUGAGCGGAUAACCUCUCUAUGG RNA 2: GGGAAUGGAUCCACAUCUACGAAUUCGUACCAAAGAGAGGUUUUCCGCUCACCGAGAUCGGAAGAGCACACGU" obs_value=7.28
binder="target 1 A14U,G15A (mixed) RNA 1: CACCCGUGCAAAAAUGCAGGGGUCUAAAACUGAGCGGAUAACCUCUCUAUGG RNA 2: GGGAAUGGAUCCACAUCUACGAAUUCGUACCAUAGAAUGGUUAUCCGCUCACCGAGAUCGGAAGAGCACACGU" obs_value=7.19

**Query** Supply measured pKd of target 3 insU 3' of 22,insG 3' of 5 (mixed) RNA 1: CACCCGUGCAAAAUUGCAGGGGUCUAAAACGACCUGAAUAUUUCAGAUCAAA RNA 2: GGGAAUGGAUCCACAUCUACGAAUUCGUUUUUUGAUCUGAAAUAUUCAGGGUCUGCAGAUCGGAAGAGCACACGU in your reply.
**Result** 7.76

**Query** Supply measured pKd of target 1 insG 3' of 4,insG 3' of 4 (mixed) RNA 1: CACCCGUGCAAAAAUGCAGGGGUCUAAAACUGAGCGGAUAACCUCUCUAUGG RNA 2: GGGAAUGGAUCCACAUCUACGAAUUCGUACCAUAGAGAGGUUAUCCGCGGUCACCGAGAUCGGAAGAGCACACGU in your reply.
**Result** 8.24

**Query** Supply measured pKd of target 2 MT 5'PFS GAC 3'PFS CAG (mixed) RNA 1: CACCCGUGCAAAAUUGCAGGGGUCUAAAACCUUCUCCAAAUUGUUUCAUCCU RNA 2: GGGAAUGGAUCCACAUCUACGAAUUCGACAGGAUGAAACAAUUUGGAGAAGCAGAGAUCGGAAGAGCACACGU in your reply.
**Result** 7.77

**Query** Supply measured pKd of target 2 MT 5'PFS GGG 3'PFS AUG (mixed) RNA 1: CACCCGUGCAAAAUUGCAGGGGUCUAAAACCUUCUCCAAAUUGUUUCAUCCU RNA 2: GGGAAUGGAUCCACAUCUACGAAUUCGGGAGGAUGAAACAAUUUGGAGAAGAUGAGAUCGGAAGAGCACACGU in your reply.
**Result** 8.04

**Query** Supply measured pKd of target 1 insG 3' of 19,insA 3' of 4 (mixed) RNA 1: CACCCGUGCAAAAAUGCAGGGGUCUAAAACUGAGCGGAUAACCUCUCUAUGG RNA 2: GGGAAUGGAUCCACAUCUACGAAUUCGUACCAUGAGAGAGGUUAUCCGCAUCACCGAGAUCGGAAGAGCACACGU in your reply.
**Result** 7.46
